measured.target: T1, laminin-111 (human, UniProt P25391 18-3075; P07942 22-1786; P11047 34-1609)
T1 construct: Full-length recombinant human laminin isoform (BioLamina); Chain composition is read from the isoform name
assay.comment: ELISA, GF coated, laminin 10 nM
readout.type: binding result

platelet-derived growth factor (PDGF)-BB (ligand, human, UniProt P01127 82-190, looked up, mature; Purchased in mature form) SLGSLTIAEPAMIAECKTRTEVFEISRRLIDRTNANFLVWPPCVEVQRCSGCCNNRNVQCRPTQVQLRPVQVRKIEIVRKKPIFKKATVTLEDHLACKCETVAAARPVT :: binds
brain-derived neurotrophic factor (BDNF) (ligand, UniProt P23560 129-247, looked up, mature; Purchased in mature form) HSDPARRGELSVCDSISEWVTAADKKTAVDMSGGTVTVLEKVPVSKGQLKQYFYETKCNPMGYTKEGCRGIDKRHWNSQCRTTQSYVRALTMDSKKRIGWRFIRIDTSCVCTLTIKRGR :: binds
